test system: A498 renal; experiment: NCI-60 one-dose screen, 48 h (100 = growth as untreated, 0 = no growth, -100 = all killed); conditions: 10 µM unless noted
This is part of a sample that, as a whole, favours compounds with a hit. Of some 83,000 tested, about 20% had one in any assay. Calls of active or inactive are those of the source. How the source made its calls: active means growth percent below 10; inactive means the rest.
endpoint: growth

For COC(=O)c1nc(=S)[nH]c(C(=O)OC)c1C(=O)c1ccccc1 the molecule record lists growth as 114% (inactive)

For C#CCOC(=O)C(N)CS (configuration not stated) the molecule record lists growth as 128% (inactive)

For COC(=O)c1nc(=S)[nH]c(C(=O)OC)c1C(=O)c1ccc(OC)cc1 the molecule record lists growth as 116% (inactive)

For Cc1cccc(Cl)c1N the molecule record lists growth as 107% (inactive)

For CC(=O)Nc1cscc1NC(C)=O the molecule record lists growth as 92.9% (inactive)

For Nc1nc(=S)c2[nH]cnc2[nH]1 the molecule record lists growth as 32% (inactive)

For CCC(C)NC(=O)c1ccccc1C (configuration not stated) the molecule record lists growth as 89.2% (inactive)

----------
tested on: MALME-3M melanoma; test: NCI-60 one-dose screen, 48 h; settings: 10 µM unless noted
This is part of a sample that, as a whole, favours compounds with a hit. Of some 83,000 tested, about 20% had one in any assay. Activity calls are given as the source filed them. The calls were made as follows: active = growth percent below 10; inactive = the rest.
Use one of these outcomes when replying: active, inactive

Ask | Any idea what this test logged for O=C1Cc2ccccc2C(=O)N1 ?
Reply | inactive

Ask | Any idea what this test logged for N#CC(=S)Nc1ccc(Cl)c(Cl)c1 ?
Reply | active

Ask | Any idea what this test logged for CC(C)(C)OC(=O)c1ccc(NCc2cc(O)ccc2O)cc1 ?
Reply | active

Ask | Any idea what this test logged for CC(=O)Nc1cscc1NC(C)=O ?
Reply | inactive

Ask | Any idea what this test logged for Cc1nc2c(=O)[nH]c(=S)[nH]c2[nH]c1=O ?
Reply | inactive

Ask | Any idea what this test logged for Oc1cccnc1CN1CCOCC1 ?
Reply | inactive

Ask | Any idea what this test logged for CCC/C(=N/NC(N)=O)c1ccco1 ?
Reply | inactive

Ask | Any idea what this test logged for COc1cc2c(cc1O)C(=O)CCCC2 ?
Reply | inactive

Ask | Any idea what this test logged for CCOC(=O)c1ccc(N2C(=O)C(Cl)(c3ccccc3)C2c2ccco2)cc1 (stereo not drawn) ?
Reply | inactive

Ask | Any idea what this test logged for COc1ccc(/C=N/Nc2nc3ccccc3s2)cc1 ?
Reply | inactive

Ask | Any idea what this test logged for CCOCCC(=O)O ?
Reply | inactive

Ask | Any idea what this test logged for Cc1nc(Nc2ccc(Cl)cc2)c2cnn(-c3ccccc3)c2n1 ?
Reply | inactive

Ask | Any idea what this test logged for CCOP(=O)(OCC)/C(C#N)=C/c1c(C)[nH]c2ccccc12 ?
Reply | inactive

----------
Tested on: LOX IMVI melanoma
Assay: NCI-60 one-dose screen, 48 h (100 = growth as untreated, 0 = no growth, -100 = all killed)
Details: 10 µM unless noted
Method: Growth inhibition of the LOX IMVI human tumor cell line is measured as a screen for anti-cancer activity. Cells are grown in 96 well plates and exposed to the test compound for 48 hours. Compounds are tested at a single concentration, which is 10^-5 M for most compounds. The reported endpoint is percent growth (GI% or GIPRCNT), where numbers from 0 - 100% represent growth inhibition, and numbers from -100% - 0 represent cell death. For example, a value of 40 represents 60% growth inhibition. […]
The panel holds about 83,000 compounds, 20% with a hit somewhere; the sample as a whole holds those more often.
Please provide measured growth for the entries that follow.
Give just the numeric value; % need not be written.

For CCN(CC)CCO/N=C1\CC(c2ccc(OC)c(OC)c2)Oc2ccccc21 (stereo not drawn) the compound record lists growth as 89.6

For O=c1[nH]nnc2cc(Cl)ccc12 the compound record lists growth as 101

For Nc1ccccc1SC1CC(=O)N(c2ccc(I)cc2)C1=O (stereo not drawn) the compound record lists growth as 76.4

For NCCSSC/C=C\CSSCCN the compound record lists growth as 97.5

For Cc1c(Cl)c(C)c(Cc2c(C)c(Cl)c(C)c(Cl)c2O)c(O)c1Cl the compound record lists growth as 4.09

For O=C1Cc2ccccc2C(=O)N1 the compound record lists growth as 42.1

For CC(C)(C)C1CCC(=NO)CC1 (stereo not drawn) the compound record lists growth as 99.8

For CC(=O)c1cc2ccccc2o1 the compound record lists growth as 95.3

For O=C(O)COc1ccccc1F the compound record lists growth as 96.5

For CCNCc1ccccc1 the compound record lists growth as 97.8

For O=C1C2=C(Nc3cc(Cl)ccc3N2)OC1c1c[nH]c2ccc(COc3ccccc3)cc12 (stereo not drawn) the compound record lists growth as 70.2

For O=c1[nH]c(=O)c2[nH]c(=O)[nH]c2[nH]1 the compound record lists growth as 102

For O=C(O)c1ccc2c3ccc(C(=O)O)c4c(C(=O)O)ccc(c5ccc(C(=O)O)c1c25)c43 the compound record lists growth as 92.7

For CCOC(=O)CN1CCC(C(=O)OCC)CC1 the compound record lists growth as 99.3

For CCCC(=O)OCC(COC(=O)CCC)OC(=O)CCC the compound record lists growth as 101

For O=C1C=CC(=O)N1Cc1ccco1 the compound record lists growth as 76.6

For O=[N+]([O-])c1cccc(N=Cc2ccccc2)c1 the compound record lists growth as 102

For COC(=O)c1cc(C(=O)OC)cc([N+](=O)[O-])c1 the compound record lists growth as 104

For O=c1ccn2c(n1)OC1CC2OC1COC(c1ccccc1)(c1ccccc1)c1ccccc1 (stereo not drawn) the compound record lists growth as 105

For O=C(c1ccncc1)c1c(Cc2ccccc2)ccc2ccccc12 the compound record lists growth as 90.8

For Clc1ccc2c(c1)N(C1CCCN(Cc3ccccc3)C1)c1ccccc1S2 (stereo not drawn) the compound record lists growth as 57

For Cc1nc(Nc2ccc(Cl)cc2)c2cnn(-c3ccccc3)c2n1 the compound record lists growth as 97.9

For CCOC(=O)c1ccc(N2C(=O)C(Cl)(c3ccccc3)C2c2ccco2)cc1 (stereo not drawn) the compound record lists growth as 77

For CS(=O)(=O)c1nsc(N)n1 the compound record lists growth as 98.2

For C/C(=C\c1ccccc1)C(O)C(=O)c1nc2ccc([N+](=O)[O-])cc2[nH]c1=O (stereo not drawn) the compound record lists growth as 75.9

For COc1ccc(CCN=Cc2ccc(Cl)cc2)cc1OC the compound record lists growth as 95.8

For Cc1cc(=NO)cc(C)n1O the compound record lists growth as 99.9

For CC1(CO)CCCC1NCCNC1CCCC1(C)CO (stereo not drawn) the compound record lists growth as 98.8

For Cc1cccc(Cl)c1N the compound record lists growth as 98.6

For NC(=O)Cc1nc(O)cc(=O)[nH]1 the compound record lists growth as 105

For COc1ccc(/C=N/NC(N)=S)cc1 the compound record lists growth as 95.8

For COc1cc2oc3cc(=O)cc4oc(-c5ccccc5)cc(c2c2c1CCC(c1ccccc1)O2)c43 (stereo not drawn) the compound record lists growth as 56.7

For O=C(O)Cc1cc(=O)[nH]n(-c2ccccc2)c1=O the compound record lists growth as 100

For O=C(O)C(Cc1ccc(OS(=O)(=O)Cc2ccccc2)cc1)NS(=O)(=O)Cc1ccccc1 (stereo not drawn) the compound record lists growth as 98

For O=[N+]([O-])c1ccc(NC(c2ccccc2)c2ccc3cccnc3c2O)cc1 (stereo not drawn) the compound record lists growth as 9.64

For O=[N+]([O-])c1ccc(N/N=C/C2CCCCCC2)c([N+](=O)[O-])c1 the compound record lists growth as 89.2

For O=C(NC(=O)c1ccc(F)c(Cl)c1)NC1CC1 the compound record lists growth as 98.6

For CC(=O)c1cccc(OC(=O)c2ccccc2)c1 the compound record lists growth as 87.4

For COC(=O)c1nc(=S)[nH]c(C(=O)OC)c1C(=O)c1ccc(OC)cc1 the compound record lists growth as 94.8

For Oc1cccnc1CN1CCOCC1 the compound record lists growth as 93.1

For CCn1c2ccc(N(C)C)cc2c2cc(N(C)C)ccc21 the compound record lists growth as 96.8

For CCOC(=O)c1ccncc1 the compound record lists growth as 99

For CSc1nc(N)c(N)c(N)n1 the compound record lists growth as 101

For CCCC(=O)Oc1ccc(CC)cc1 the compound record lists growth as 97.8

For O=c1[nH]c(=S)[nH]n1C(=S)n1[nH]c(=S)[nH]c1=O the compound record lists growth as 95.6

For O=[N+]([O-])c1ccc(NC2CCCCC2)nc1 the compound record lists growth as 94

For Nc1ccc(Cl)c(S(=O)(=O)O)c1 the compound record lists growth as 97.5

For COc1ccc2nccc(Cl)c2c1 the compound record lists growth as 97.9

For COc1ccc(CCO)cc1 the compound record lists growth as 99.5

For CCc1ccccc1-n1[nH]c(C)c(C=N)c1=O the compound record lists growth as 99.1

For O=C(O)C#Cc1ccc(Cl)cc1 the compound record lists growth as 91.5

For NNc1ncnc2cccc(Cl)c12 the compound record lists growth as 94.6

For OCc1cccc(F)c1 the compound record lists growth as 76.8
